Cited source for all entries: patent US20110129459A1

Target: T1, rhNR10 (recombinant human NR10) (human, UniProt Q8NI17 20-519, limits assumed)
T1 construct: also called IL-31 receptor; IL31RA
T1 sequence: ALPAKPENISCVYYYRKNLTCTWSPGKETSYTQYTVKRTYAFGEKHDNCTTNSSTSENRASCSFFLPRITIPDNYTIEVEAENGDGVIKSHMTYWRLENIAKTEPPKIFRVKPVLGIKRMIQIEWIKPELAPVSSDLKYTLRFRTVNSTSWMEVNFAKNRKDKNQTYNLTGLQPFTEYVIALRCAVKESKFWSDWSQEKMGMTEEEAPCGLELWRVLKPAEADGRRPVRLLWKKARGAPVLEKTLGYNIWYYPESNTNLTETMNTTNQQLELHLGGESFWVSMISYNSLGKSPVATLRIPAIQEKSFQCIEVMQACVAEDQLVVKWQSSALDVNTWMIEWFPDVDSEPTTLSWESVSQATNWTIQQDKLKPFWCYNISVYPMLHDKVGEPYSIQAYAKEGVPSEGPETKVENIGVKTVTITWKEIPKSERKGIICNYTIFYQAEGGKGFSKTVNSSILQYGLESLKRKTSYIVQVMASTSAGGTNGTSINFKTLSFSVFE
Experiment: SPR, Biacore T100; antibody captured on Protein A, rhNR10 as analyte
PROPERTY MEASURED: Kd (nM)

| BINDER | PROPERTY MEASURED | VALUE REPORTED |
| --- | --- | --- |
| H0La326 (H0-SKSC / La326) (antibody, name in Kabat numbering, V domains shown) VH: QVQLVQSGAEVKKPGASVKVSCKASGYTFTGYIMNWVRQAPGQGLEWMGLINPYNGGTSYNQKFKGRVTITADESTSTAYMELSSLRSEDTAVYYCARDGYDDGPYTMDYWGQGTLVTVSS VL: DIQMTQSPSSLSASVGDRVTITCRTSENIYSFLAWYQQKPGKAPKLLIYNAKTLAKGVPSRFSGSGSGTDFTLTISSLQPEDFATYYCQHHYESPLFFGGGTKVEIKR | Kd | 3.7 |
| Ha103L0 (Ha103-SKSC / L0) (antibody, V domains shown) VH: QVQLVQSGAEVKKPGASVKVSCKASGYTFTGYIINWVRQAPGQGLEWMGLINPYNGGTSYNQKFKGRVTITADESTSTAYMELSSLRSEDTAVYYCARDGYDDGPYTMDYWGQGTLVTVSS VL: DIQMTQSPSSLSASVGDRVTITCRTSENIYSFLAWYQQKPGKAPKLLIYNAKTLAKGVPSRFSGSGSGTDFTLTISSLQPEDFATYYCQHHYESPLTFGGGTKVEIKR | Kd | 2.4 |
| H0La134 (H0-SKSC / La134) (antibody, V domains shown) VH: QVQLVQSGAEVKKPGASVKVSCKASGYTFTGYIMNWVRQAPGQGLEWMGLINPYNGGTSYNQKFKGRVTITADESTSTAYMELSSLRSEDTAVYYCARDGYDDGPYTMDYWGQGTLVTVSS VL: DIQMTQSPSSLSASVGDRVTITCRTSENIYRFLAWYQQKPGKAPKLLIYNAKTLAKGVPSRFSGSGSGTDFTLTISSLQPEDFATYYCQHHYESPLTFGGGTKVEIKR | Kd | 1.8 |
| Ha101L0 (Ha101-SKSC / L0) (antibody, V domains shown) VH: QVQLVQSGAEVKKPGASVKVSCKASGYTFTGYVMNWVRQAPGQGLEWMGLINPYNGGTSYNQKFKGRVTITADESTSTAYMELSSLRSEDTAVYYCARDGYDDGPYTMDYWGQGTLVTVSS VL: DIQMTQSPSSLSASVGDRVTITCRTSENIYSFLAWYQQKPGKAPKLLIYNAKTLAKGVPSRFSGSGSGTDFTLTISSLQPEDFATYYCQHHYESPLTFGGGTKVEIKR | Kd | 1.5 |
